The origin of these recorded values is patent US20230382979A1.

molecular target: SARS-CoV-2 spike protein on live virus, strain USA-WA1/2020 (SARS-CoV-2, WA01/2020 strain, UniProt P0DTC2 14-1273); assay: cell-based or functional assay
valueType: Live Neut, WA1/2020 IC50 (pM)
The reply should contain only the number, in pM.

Input antibody 2075 (antibody, V domains shown) VH: QVQLVQSGAEVKKPGSSVKVSCTASGGTFSIYAFSWVRQAPGQGLEWMGGIIPISGTAGYAQKFQGRVTITADESTSTAYMELSSLRSEDTAIYYCARKYRYCSGSRCYTYFDYWGQGTLVTVSS VL: DIQMTQSPSSLSASVGDRVTITCRASQSISSFLNWYQQKPGKAPKLLIYAASSLQSGVPSRFSGSGSGTDFTLTISSLQPEDSATYYCQQSYSTITFGQGTRLEIK . Output Live Neut, WA1/2020 IC50 (pM): 12

Input antibody 3091 (antibody, V domains shown) VH: QMQLVQSGPEVKKPGTSVKVSCKASGFTFSSSAVQWVRQARGQGLEWIGWIVVGSGNANYAQKLQERVSITRDMSTSTAYMELSSLRPEDTAVYYCAAPHCSRTICHDGFDMWGQGTMVTVSS VL: EIVLTQSPGTLSLSPGERATLSCRASQSVRSSYLAWYQQKPGQAPRLLMFVASSRATGIPDRFSGSGSGTDFTLTISRLEPEDFAVYYCQQYDTSPWTFGQGTKVEIK . Output Live Neut, WA1/2020 IC50 (pM): 8

***
Input antibody 2564 (antibody, V domains shown) VH: QVQLVQSGAEVKKPGSSVRVSCKASGGTFISYTFNWVRQAPGQGLEWMGRIIPIFGIVNYAQKFQGRVTIAADKSTSTAYMELSSLRSEDTAMYYCATATVDYDSGEEQSSFDPWGQGTLVTVSS VL: EIVLTQSPGTLSLSPGERATLSCRASQSVSSSYLAWYQQKAGQTPRLLIYAASSRATGVPDRFSGSGSGTDFTLTISRLEAEDFAVYYCQQSWTFGQGTKVEIK . Output Live Neut, WA1/2020 IC50 (pM): 7

Input antibody 2025 (antibody, V domains shown) VH: QVQLVQSGAEVKKPGASVKVSCKVSGYTLIELSMHWVRQAPGKGLEWMGGFDPEDVETIYAQKFQGRVTMTEDTSTDTAYMELSSLRSEDTAVYYCATAYAVQWRGMIGYWGQGTLVTVSS VL: QSALTQPASVSGSPGQSITISCTGTSSDVGSYNLVSWYQQHPGKAPKLMIYEVSKRPSGVSNRFSGSKSGNTASLTISGLQAEDEADYYCSSYAGSSTFSYVFGTGTKVTVL . Output Live Neut, WA1/2020 IC50 (pM): 118

Input antibody 4042 (antibody, V domains shown) VH: QITLKESGPTLVKPTQTLTLTCTFSGFSLSSGGVGVGWIRQPPGKALEWLALIYWDDDKRYRPSLKSRLTITRDTSTNQVVLTMTNMDPVDTATYFCARHQIATVFDHWGQGTLVTVSS VL: QSALTQPASVSGSPGQSITISCTGTSSDVGGYNYVSWYQQHPGKAPKLMIYEVSNRPSGVSSRFSGSKSGNTASLTISGLQAEDEADYYCSSYTRSSPLVAFGGGTKVTVL . Output Live Neut, WA1/2020 IC50 (pM): 15

Input antibody 1238 (antibody, V domains shown) VH: QVQLVQSGSELKKPGASVKVSCKASGYTFTNYGMNWVRQAPGQGLEWMGWINTNTGNPTNAQGFTGRFVFSLDTSVSTAYLQINSLKGEDTAVYYCARVADTGEMDVWGQGTTVTVSS VL: SYELTQPPSVSVSPGQTARITCSGDALPKQYAYWYQQKPGQAPVLVIYKDSERPSGIPERFSGSSSGTTVTLTISGVQAEDEADYYCQSADSSGSYNWVFGGGTKLTIL . Output Live Neut, WA1/2020 IC50 (pM): 400

Input antibody 1671 (antibody, V domains shown) VH: EVQLVESGGGLVKPGGSLRLSCAASGFTFSTYNMNWVRQAPGKGLEWVSSISSNSNYIYYADSMKGRFTISRDNAKNSLYLQMNSLRAEDTAVYYCARDMDPLPYFDWLLYAFDVWGQGTMVTVSS VL: EIVLTQSPGTLSLSPGERATLSCRASQSVSGSYLAWYQQKPGQAPRLLIYGASSRATGIPDRFSGSGSGTDFTLTISRLEPEDFAVYYCQQYGSPIFTFGPGTKVDIK . Output Live Neut, WA1/2020 IC50 (pM): 9

Input antibody 935 (antibody, V domains shown) VH: EVQLVESGGGLVQPGGSLRLSCAASGFTVSSNYMSWVRQAPGKGLEWVSVIYSGGSTFYADSVKGRFTISRDNSRNTLYLQMNSLRAEDTAVYYCARDWGEFFFDFWGQGALVTVSS VL: EIVLTQSPGTLSLSPGERATLSCRASQTISSSYLAWYQQKPGQAPRLLISGASSRATGIPDRFSGSGSGTDFTLTISRLEPEDFAVYYCQQYGSSPRTFGQGTNVEIK . Output Live Neut, WA1/2020 IC50 (pM): 64

Input antibody 1679 (antibody, V domains shown) VH: QITLKESGPTLVKPTQTLTLTCTFSGFSLSTVGVGVAWIRQPPGKALEWLALIYWDDDKRYSPSLKSRLTITKDTSKNHVVLTMTNMDPVDTATYYCAHHIIAALVDVWGKGTTVTVSS VL: QSALTQPASVSGSPGQSITISCTGTSSDVGGNNYVSWYQHHPGEAPKLMIYEVSNRPSGVSNRFSGSKSGNTASLTISGLQAEDEADYYCSSYTTSSTLVVFGGGSKLTVL . Output Live Neut, WA1/2020 IC50 (pM): 19

Input antibody 2892 (antibody, V domains shown) VH: QVQLVQSGAEVKKPGSSVKVSCKASGDAFISYAISWVRQAPGQGLEWMGGIIPIFGTANYAQKFQGRVTISADESTSTAYMELSRLRSEDTAVYYCARGGPEPYGSGSGYTPRYNWFDPWGQGTLVTVSS VL: QSALTQPRSVSGSPGQSVTISCTGTSSDVGGYNYVSWYQQHPGKAPKFMIYDVNRRPSGVPDRFSGSKSGNTASLTISGLQAEDEADYYCCSYAGTYTWVFGGGTKLTVL . Output Live Neut, WA1/2020 IC50 (pM): 10
